target.desc: DAPK3 (human) (UniProt O43293)
Sequence (O43293 whole entry, looked up): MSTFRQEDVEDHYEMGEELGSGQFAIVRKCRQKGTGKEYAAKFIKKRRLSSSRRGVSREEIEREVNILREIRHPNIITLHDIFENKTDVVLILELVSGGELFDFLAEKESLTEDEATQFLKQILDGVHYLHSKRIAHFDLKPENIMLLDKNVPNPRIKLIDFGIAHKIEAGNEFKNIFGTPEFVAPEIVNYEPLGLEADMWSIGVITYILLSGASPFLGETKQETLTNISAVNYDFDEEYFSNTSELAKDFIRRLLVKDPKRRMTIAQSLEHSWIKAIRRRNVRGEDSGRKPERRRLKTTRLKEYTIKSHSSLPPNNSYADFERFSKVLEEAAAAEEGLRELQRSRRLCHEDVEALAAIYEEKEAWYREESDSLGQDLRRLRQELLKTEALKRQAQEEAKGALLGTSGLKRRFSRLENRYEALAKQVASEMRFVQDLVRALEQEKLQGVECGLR
assay.notes: radiometric filter-binding kinase assay, Kinase HotSpot
measurement.setup: compound 0.5 µM; ATP 10 µM
value.kind: residual activity (%)
Reply with just the number (in %).

Problem: Find the recorded residual activity belonging to `COc1cc2ncnc(Nc3ccc(Oc4ccccc4)cc3)c2cc1OC` and report it.
Result: 96.9

Problem: Repeat for the following compound: `CO[C@@H]1[C@H](N(C)C(=O)c2ccccc2)C[C@H]2O[C@]1(C)n1c3ccccc3c3c4c(c5c6ccccc6n2c5c31)C(=O)NC4`
Result: 82.6

Problem: Entry `COc1ccc(C(=O)Nc2sc3c(c2C(N)=O)CCCC3)cc1OC` please
Result: 102

###

target.desc: DSTYK (human)
assay.notes: radiometric filter-binding kinase assay, Kinase HotSpot
measurement.setup: compound 0.5 µM; ATP 10 µM
value.kind: residual activity (%)
Give the value in % but do not write % after it.

Problem: Fill in: residual activity of `Cc1nc(-c2ccccc2)c(-c2ccncc2)o1` is ___
Result: 91

Problem: Would you mind doing `CC(C)(C)c1cc(C=C(C#N)C#N)cc(Br)c1O` as well?
Result: 105

Problem: // query: `Cn1c2ccccc2c2c3c(c4c5ccccc5n(CCC#N)c4c21)CNC3=O`
Result: 9.91

Problem: Input `O=C1c2ccccc2-c2nc3nnnn3nc21`
Result: 81.5

Problem: Proceed to `COc1cc2ncnc(Nc3ccc(Oc4ccccc4)cc3)c2cc1OC`
Result: 91.6

Problem: Also `COc1ccc(S(=O)(=O)N(CCO)c2ccccc2CN(C)C/C=C/c2ccc(Cl)cc2)cc1` ?
Result: 93.5

Problem: Record: `COc1ccc(Cl)cc1NC(=O)Nc1cc(C)nc2ccccc12`
Result: 98.8

Problem: How about this compound: `Fc1ccc(-c2nc3n(c2-c2ccncc2)CCS3)cc1`
Result: 105

Problem: Same again, this time with `O=C1C(Cl)=C(N2C(=O)CCC2=O)C(=O)c2ccccc21`
Result: 95.4

Problem: Try the compound `O=C(c1cc2cc(O)ccc2[nH]1)c1cc2cc(O)ccc2[nH]1`
Result: 95.5

Problem: Field entry: `Cc1cncc2cccc(S(=O)(=O)N3CCCN(C(=O)CN)C[C@H]3C)c12`
Result: 105

Problem: Entry `CCCCc1c(-c2ccc(OC)cc2)[nH]c2nccnc12` please
Result: 97.6

Problem: Now the compound `O=C1Nc2ccc(Br)cc2/C1=C\c1cc2c([nH]1)CCCC2`
Result: 93.1

Problem: What would you report for `CN(C)c1ccc(/C=C2\C(=O)Nc3ccccc32)cc1` ?
Result: 103

Problem: Same for `CN(C)S(=O)(=O)c1ccc2c(c1)/C(=C/c1cc3c([nH]1)CCCC3)C(=O)N2`
Result: 96

Problem: How about this compound: `N#Cc1c[nH]c2c[nH]/c(=N\Cc3cccnc3)cc2/c1=N\c1ccc(F)c(Cl)c1`
Result: 87.3

Problem: Query `NC(=O)c1cccc(-c2cc(Nc3ccc(OC(F)(F)F)cc3)ncn2)c1` next
Result: 95.8

Problem: Queued: `COc1cc2ncnc(Nc3ccc(OCc4ccccc4)cc3)c2cc1OC`
Result: 95.9

Problem: Another compound to look at: `CS(=O)(=O)CCNCc1ccc(-c2ccc3ncnc(Nc4ccc(OCc5cccc(F)c5)c(Cl)c4)c3c2)o1`
Result: 108

Problem: Same for `Cc1cccc(-c2nc(C(C)(C)C)[nH]c2-c2ccc3c(c2)OCO3)n1`
Result: 89.1

Problem: // repeat for `COc1cc(Nc2c(C#N)cnc3cc(OCCCN4CCN(C)CC4)c(OC)cc23)c(Cl)cc1Cl` and report
Result: 104

Problem: Param item: `COc1ccc(C(=O)Nc2sc3c(c2C(N)=O)CCCC3)cc1OC`
Result: 92.2

Problem: Please give the result for `COc1ccc2c(c1)/C(=C/c1cnc[nH]1)C(O)=N2` too.
Result: 106

Problem: Please do the same for `N#C/C(=C\c1ccc(O)c(O)c1)C(=O)NCc1ccccc1` as well.
Result: 91
